Collected pIC50 values appear next to each entry.
biological target: recombinant LRRK2 kinase (Homo sapiens); assay: LRRK2 kinase inhibition (Kinase-Glo luminescence); details: IC50 grade; 25 μmol/L ATP, LRRKtide, 30° C. 2 hours; read-out: Enzyme activity LRRK2
pIC50: −log10 of the molar value.

{"columns": ["smiles.record", "system", "parameter", "result"],
 "data": [
  ["CCNc1nc(Nc2cc(F)c(C(=O)NC3CCN(C)CC3)cc2OC)nc2[nH]cc(C#N)c12", "recombinant LRRK2 kinase (Homo sapiens)", "pIC50", "7.00 to 8.00"],
  ["CNc1nc(Nc2cnn([C@H]3CCN(C4COC4)C[C@@H]3F)c2Cl)nc2[nH]cc(C#N)c12", "recombinant LRRK2 kinase (Homo sapiens)", "pIC50", "> 8.00"],
  ["CNc1nc(Nc2cn(C)nc2C)nc2[nH]cc(C#N)c12", "recombinant LRRK2 kinase (Homo sapiens)", "pIC50", "7.00 to 8.00"]
]}

Alright, here's another compound for you.
[ask] For the compound shown here, CNc1nc(Nc2cn(C(C)(C)C#N)nc2C)nc2[nH]cc(C#N)c12 , give the reported pIC50.
[reply] > 8.00

----------
Biological target: recombinant LRRK2 kinase (Homo sapiens, UniProt Q5S007)
Sequence (Q5S007 whole entry): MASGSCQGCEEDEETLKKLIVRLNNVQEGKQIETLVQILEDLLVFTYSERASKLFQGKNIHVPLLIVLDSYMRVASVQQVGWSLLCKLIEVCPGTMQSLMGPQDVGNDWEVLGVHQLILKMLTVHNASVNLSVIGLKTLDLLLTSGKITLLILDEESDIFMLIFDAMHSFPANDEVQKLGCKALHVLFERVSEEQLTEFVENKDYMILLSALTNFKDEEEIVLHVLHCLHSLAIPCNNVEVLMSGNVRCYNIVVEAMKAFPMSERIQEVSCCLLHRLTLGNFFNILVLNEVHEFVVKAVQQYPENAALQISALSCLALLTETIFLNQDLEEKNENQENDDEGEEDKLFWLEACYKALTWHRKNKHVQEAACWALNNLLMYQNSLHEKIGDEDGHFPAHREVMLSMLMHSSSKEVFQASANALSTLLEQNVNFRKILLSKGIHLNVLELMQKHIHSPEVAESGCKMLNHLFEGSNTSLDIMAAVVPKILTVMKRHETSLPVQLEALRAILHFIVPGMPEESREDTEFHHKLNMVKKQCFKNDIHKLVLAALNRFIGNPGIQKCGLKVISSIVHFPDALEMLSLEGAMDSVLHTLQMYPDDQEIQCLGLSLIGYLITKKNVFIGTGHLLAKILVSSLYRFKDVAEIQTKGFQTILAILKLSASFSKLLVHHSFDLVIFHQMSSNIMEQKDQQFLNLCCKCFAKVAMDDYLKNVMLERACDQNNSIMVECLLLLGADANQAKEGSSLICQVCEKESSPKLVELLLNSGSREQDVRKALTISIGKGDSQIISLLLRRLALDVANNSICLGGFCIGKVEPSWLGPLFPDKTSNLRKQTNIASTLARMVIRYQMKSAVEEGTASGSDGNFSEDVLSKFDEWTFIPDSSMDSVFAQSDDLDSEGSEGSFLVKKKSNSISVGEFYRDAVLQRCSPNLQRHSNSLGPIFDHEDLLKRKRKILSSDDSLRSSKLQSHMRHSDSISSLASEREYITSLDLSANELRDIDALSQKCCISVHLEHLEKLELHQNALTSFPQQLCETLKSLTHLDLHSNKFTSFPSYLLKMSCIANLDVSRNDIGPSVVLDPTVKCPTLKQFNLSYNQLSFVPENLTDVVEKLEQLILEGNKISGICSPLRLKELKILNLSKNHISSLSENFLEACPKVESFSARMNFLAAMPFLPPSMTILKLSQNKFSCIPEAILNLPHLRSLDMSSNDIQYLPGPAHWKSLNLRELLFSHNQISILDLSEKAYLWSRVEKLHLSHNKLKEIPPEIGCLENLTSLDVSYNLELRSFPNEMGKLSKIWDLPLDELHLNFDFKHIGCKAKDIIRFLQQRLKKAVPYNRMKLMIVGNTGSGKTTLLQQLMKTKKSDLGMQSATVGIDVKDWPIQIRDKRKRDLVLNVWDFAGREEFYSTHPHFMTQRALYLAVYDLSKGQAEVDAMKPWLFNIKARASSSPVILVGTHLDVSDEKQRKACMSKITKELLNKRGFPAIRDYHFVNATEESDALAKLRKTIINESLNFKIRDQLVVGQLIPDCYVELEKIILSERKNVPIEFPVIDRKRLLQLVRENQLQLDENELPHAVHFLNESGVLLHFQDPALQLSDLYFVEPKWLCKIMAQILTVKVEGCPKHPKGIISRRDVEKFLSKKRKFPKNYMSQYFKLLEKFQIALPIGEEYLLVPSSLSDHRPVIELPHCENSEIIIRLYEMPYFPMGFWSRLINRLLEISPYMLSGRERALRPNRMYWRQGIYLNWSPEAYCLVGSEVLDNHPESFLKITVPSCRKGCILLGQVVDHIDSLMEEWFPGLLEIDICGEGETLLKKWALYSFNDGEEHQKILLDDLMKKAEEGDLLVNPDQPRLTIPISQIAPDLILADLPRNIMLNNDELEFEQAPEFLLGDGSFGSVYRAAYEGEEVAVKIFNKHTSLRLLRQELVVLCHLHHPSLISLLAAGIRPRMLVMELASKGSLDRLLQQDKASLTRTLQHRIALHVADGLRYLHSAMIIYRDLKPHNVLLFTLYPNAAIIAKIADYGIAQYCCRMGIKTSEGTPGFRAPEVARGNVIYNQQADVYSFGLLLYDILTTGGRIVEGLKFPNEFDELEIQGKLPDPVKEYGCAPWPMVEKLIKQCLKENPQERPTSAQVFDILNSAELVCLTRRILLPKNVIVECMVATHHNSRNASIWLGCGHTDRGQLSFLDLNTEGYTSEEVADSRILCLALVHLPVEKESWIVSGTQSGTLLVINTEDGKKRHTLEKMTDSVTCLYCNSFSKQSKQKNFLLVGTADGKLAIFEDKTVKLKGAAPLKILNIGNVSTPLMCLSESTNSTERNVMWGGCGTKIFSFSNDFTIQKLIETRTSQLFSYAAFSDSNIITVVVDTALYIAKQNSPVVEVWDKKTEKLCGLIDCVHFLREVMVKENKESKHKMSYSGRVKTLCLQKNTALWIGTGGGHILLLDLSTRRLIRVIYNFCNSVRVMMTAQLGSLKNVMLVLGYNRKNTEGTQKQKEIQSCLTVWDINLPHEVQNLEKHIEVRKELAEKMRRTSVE
Assay: LRRK2 kinase inhibition (Kinase-Glo luminescence)
Settings: IC50 grade; 25 μmol/L ATP, LRRKtide, 30° C. 2 hours; read-out: Enzyme activity LRRK2
Protocol: Upon completion of the reaction, an equal amount of Kinase-Glo (Promega, Madison, Wis.) solution was added thereto, followed by reaction for 40 minutes. A detection solution was added thereto, followed by further reaction at room temperature for 30 minutes. Then, IC50 of kinase was calculated by measuring the amount of luciferase using a microplate ELISA reader (Bio-Tek).
pIC50: −log10 of the molar value.
Collected pIC50 values appear next to each entry.

The examples below pair each entry with its known result.
{"columns": ["compound", "pIC50"],
 "data": [
  ["F[C@H]1CN(C2COC2)CC[C@@H]1n1ncc(Nc2nc(OC3CCOC3)c3c(C(F)(F)F)c[nH]c3n2)c1Cl (stereo partly shown) [Example 127]", "7.00 to 8.00"],
  ["CCNc1nc(Nc2cc3c(cc2OC)C(=O)N(C)C3)nc2[nH]cc(C(F)(F)F)c12 [Example 133]", "> 8.00"],
  ["COc1cc(C(=O)N2CCOCC2)ccc1Nc1nc(NC2CC2)c2c(C#N)c[nH]c2n1 [Example 16]", "> 8.00"]
]}

Alright, here's another compound for you.
[ask] For the compound shown here, COc1cc(C(=O)N2CCC(F)(F)CC2)ccc1Nc1nc(NC2(C)CC2)c2c(C#N)c[nH]c2n1 [Example 45] , give the reported pIC50.
[reply] 7.00 to 8.00

----------
target: recombinant LRRK2 kinase (Homo sapiens, UniProt Q5S007); assay: LRRK2 kinase inhibition (Kinase-Glo luminescence); conditions: IC50 grade; 25 μmol/L ATP, LRRKtide, 30° C. 2 hours; read-out: Enzyme activity LRRK2
parameter: IC50

The examples below pair each entry with its known result.
{"columns": ["smiles.record", "IC50"],
 "data": [
  ["CC1(Oc2nc(Nc3cnn([C@H]4CCN(C5COC5)C[C@@H]4F)c3Cl)nc3[nH]cc(C#N)c23)CC1", "< 10 nM"],
  ["CCNc1nc(Nc2ncc(C(=O)N3CCOCC3)cc2OC)nc2[nH]cc(C#N)c12", "> 100 nM"],
  ["CCNc1nc(Nc2ccc(C(=O)N3CCOCC3)cc2OC)nc2[nH]cc(C(F)(F)F)c12", "10 to 100 nM"],
  ["CNc1nc(Nc2cnn(C)c2C)nc2[nH]cc(C#N)c12", "10 to 100 nM"],
  ["CCNc1nc(Nc2cc(F)c(C(=O)N3CCN(C)C[C@H]3C)cc2OC)nc2[nH]cc(C#N)c12", "< 10 nM"]
]}

[ask] IC50 of COc1cc(C(=O)N2CCOCC2)ccc1Nc1nc(NC2(C)CC2)c2c(C#N)c[nH]c2n1 on recombinant LRRK2 kinase (Homo sapiens, UniProt Q5S007)?
[reply] < 10 nM

[ask] Follow-up item: Cc1c(Nc2nc(NC3(C)CC3)c3c(C#N)c[nH]c3n2)cnn1C(C)C
[reply] < 10 nM

----------
target: recombinant LRRK2 kinase (Homo sapiens, UniProt Q5S007); experiment: LRRK2 kinase inhibition (Kinase-Glo luminescence); conditions: IC50 grade; 25 μmol/L ATP, LRRKtide, 30° C. 2 hours; read-out: Enzyme activity LRRK2
parameter: IC50

{"columns": ["smiles.record", "parameter", "result"],
 "data": [
  ["COc1cc(C(=O)N2CCO[C@H](C)C2)ccc1Nc1nc(OC2(C)CC2)c2c(C#N)c[nH]c2n1", "IC50", "10 to 100 nM"],
  ["CCNc1nc(Nc2ccc(C(=O)N3CCC(N4CCOCC4)CC3)cc2OC)nc2[nH]cc(C#N)c12", "IC50", "< 10 nM"],
  ["CCNc1nc(Nc2cn(C(C)(C)C#N)nc2Cl)nc2[nH]cc(C#N)c12", "IC50", "< 10 nM"],
  ["CCNc1nc(Nc2cnn(C(C)(C)C#N)c2Cl)nc2[nH]cc(C#N)c12", "IC50", "< 10 nM"]
]}

[ask] For the compound shown here, Cc1nn(C)cc1Nc1nc(NC2(C)CC2)c2c(C#N)c[nH]c2n1 , give the reported IC50.
[reply] < 10 nM

[ask] Follow-up item: COc1cc(C(=O)N2CCO[C@H](C)C2)ccc1Nc1nc(NC2(C)CC2)c2c(C#N)c[nH]c2n1
[reply] < 10 nM

[ask] Follow-up item: Cc1nn(C(C)C)cc1Nc1nc(NC2(C)CC2)c2c(C#N)c[nH]c2n1
[reply] < 10 nM

[ask] Follow-up item: CCNc1nc(Nc2ccc(C(=O)N3CCO[C@H](C)C3)cc2OC)nc2[nH]cc(C(F)(F)F)c12
[reply] 10 to 100 nM

----------
target: recombinant LRRK2 kinase (Homo sapiens, UniProt Q5S007); assay: LRRK2 kinase inhibition (Kinase-Glo luminescence); details: IC50 grade; 25 μmol/L ATP, LRRKtide, 30° C. 2 hours; read-out: Enzyme activity LRRK2
parameter: IC50

The examples below pair each entry with its known result.
{"columns": ["smiles.record", "system", "IC50"],
 "data": [
  ["CNc1nc(Nc2cc(F)c(C(=O)N3CCN(C)C[C@H]3C)cc2OC)nc2[nH]cc(C#N)c12", "recombinant LRRK2 kinase (Homo sapiens, UniProt Q5S007)", "10 to 100 nM"],
  ["COc1cc(C(=O)N2CCOCC2)c(F)cc1Nc1nc(O[C@H]2CCOC2)c2c(C#N)c[nH]c2n1", "recombinant LRRK2 kinase (Homo sapiens, UniProt Q5S007)", "< 10 nM"]
]}

[ask] For the molecule shown here, CNc1nc(Nc2ccc(C(=O)NC3CCN(C)CC3)cc2OC)nc2[nH]cc(C#N)c12 , give the reported IC50.
[reply] < 10 nM

[ask] Follow-up item: CNc1nc(Nc2cn(C(C)(C)C#N)nc2Cl)nc2[nH]cc(C#N)c12
[reply] < 10 nM

[ask] Follow-up item: COc1cc(C(=O)N2CCOCC2)c(F)cc1Nc1nc(OC2(C)CC2)c2c(C#N)c[nH]c2n1
[reply] < 10 nM

[ask] Follow-up item: CNc1nc(Nc2ccc(C(=O)N3CCOCC3)cc2OC)nc2[nH]cc(C(F)(F)F)c12
[reply] 10 to 100 nM

[ask] Follow-up item: CCNc1nc(Nc2cnn(CCOC)c2Cl)nc2[nH]cc(C#N)c12
[reply] < 10 nM

[ask] Follow-up item: CCNc1nc(Nc2cc(OC)c(OC)c(OC)c2)nc2[nH]cc(C#N)c12
[reply] < 10 nM

----------
target: recombinant LRRK2 kinase (Homo sapiens, UniProt Q5S007); assay: LRRK2 kinase inhibition (Kinase-Glo luminescence); conditions: IC50 grade; 25 μmol/L ATP, LRRKtide, 30° C. 2 hours; read-out: Enzyme activity LRRK2
parameter: IC50

The examples below pair each entry with its known result.
{"columns": ["compound", "parameter", "result"],
 "data": [
  ["CCNc1nc(Nc2ccc(C(=O)N3CCN(C4COC4)CC3)cc2OC)nc2[nH]cc(C#N)c12", "IC50", "< 10 nM"],
  ["CCCNc1nc(Nc2ccc(C(=O)N3CCOCC3)cc2OC)nc2[nH]cc(C#N)c12", "IC50", "< 10 nM"],
  ["CNc1nc(Nc2ccc(C(=O)N3CCC(N4CCOCC4)CC3)cc2OC)nc2[nH]cc(C#N)c12", "IC50", "< 10 nM"],
  ["CCNc1nc(Nc2ccc(C(=O)N3CCOC(C)C3)cc2OC)nc2[nH]cc(C(F)(F)F)c12 (stereo in doubt)", "IC50", "10 to 100 nM"],
  ["COc1cc(C(=O)N2CCC(N3CCOCC3)CC2)ccc1Nc1nc(OC2CCOCC2)c2c(C#N)c[nH]c2n1", "IC50", "< 10 nM"],
  ["CCNc1nc(Nc2cc3c(cc2OC)N(C)C(=O)C(C)(C)O3)nc2[nH]cc(C(F)(F)F)c12", "IC50", "> 100 nM"],
  ["CCNc1nc(Nc2ccc(C(=O)NC3CCN(C)CC3)cc2OC)nc2[nH]cc(C#N)c12", "IC50", "< 10 nM"],
  ["CC1(Oc2nc(Nc3cnn([C@H]4CCN(C5COC5)C[C@@H]4F)c3)nc3[nH]cc(C#N)c23)CC1", "IC50", "< 10 nM"],
  ["CCCNc1nc(Nc2ccc(C(=O)N3CCC(N4CCOCC4)CC3)cc2OC)nc2[nH]cc(C#N)c12", "IC50", "< 10 nM"],
  ["CCNc1nc(Nc2cc3c(cc2Cl)C(=O)N(C)C3)nc2[nH]cc(C#N)c12", "IC50", "> 100 nM"]
]}

[ask] For the compound shown here, COc1cc(C(=O)N2CCOCC2)ccc1Nc1nc(OC2(C)CC2)c2c(C#N)c[nH]c2n1 , give the reported IC50.
[reply] < 10 nM

[ask] Follow-up item: CNc1nc(Nc2ccc(C(=O)N3CCOCC3)cc2OC)nc2[nH]cc(C#N)c12
[reply] < 10 nM

[ask] Follow-up item: CCNc1nc(Nc2cnn(C)c2)nc2[nH]cc(C#N)c12
[reply] < 10 nM

[ask] Follow-up item: CNc1nc(Nc2cc(F)c(C(=O)N3CCC(N4CCOCC4)CC3)cc2OC)nc2[nH]cc(C#N)c12
[reply] < 10 nM

[ask] Follow-up item: CNc1nc(Nc2cnn(C(C)(C)C#N)c2Cl)nc2[nH]cc(C#N)c12
[reply] < 10 nM

[ask] Follow-up item: CCCNc1nc(Nc2cc(F)c(C(=O)N3CCOCC3)cc2OC)nc2[nH]cc(C#N)c12
[reply] 10 to 100 nM

Where do these numbers come from? They come from patent US11208412B2.
